study target: Cruzipain (Trypanosoma cruzi) (UniProt P25779)
Sequence (P25779 123-467 limits assumed): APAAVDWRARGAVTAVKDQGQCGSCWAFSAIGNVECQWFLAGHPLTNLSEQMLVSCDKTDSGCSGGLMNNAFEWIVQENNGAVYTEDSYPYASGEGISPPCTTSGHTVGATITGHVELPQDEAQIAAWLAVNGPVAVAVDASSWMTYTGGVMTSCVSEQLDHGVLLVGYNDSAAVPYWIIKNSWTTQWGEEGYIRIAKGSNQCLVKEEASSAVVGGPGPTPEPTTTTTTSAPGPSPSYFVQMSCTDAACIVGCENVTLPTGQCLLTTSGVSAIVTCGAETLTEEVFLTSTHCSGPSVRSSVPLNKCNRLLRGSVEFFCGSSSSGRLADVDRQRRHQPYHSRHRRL
assay overview: Reversible inhibition of Trypanosoma cruzi cruzain using Cbz-Phe-Arg-AMC as substrate assessed as enzyme recovery at 10 fold >apparent Ki preincubated for 2 hrs followed by 100-fold dilution in presence of substrate by rapid dilution assay relative to control
Set-up: scale not given: the % may be the effect or the level left
Listed here: items and their measured Activity.
Quick note: give the figure in %, leave out the unit.

Sample records with Activity:
compound | study target | Activity, %
COC(=O)c1ccc2c(c1)C[C@H](NC(=O)[C@H](Cc1ccccc1)NC(=O)OCc1ccccc1)C(O)O2 (stereo partly specified) | Cruzipain (Trypanosoma cruzi) (UniProt P25779) | 91
O=C(N[C@@H](Cc1ccccc1)C(=O)N[C@H]1Cc2cc(F)ccc2OC1O)OCc1ccccc1 (stereo partly specified) | Cruzipain (Trypanosoma cruzi) (UniProt P25779) | 91
O=C(N[C@@H](Cc1ccccc1)C(=O)N[C@H]1Cc2cc(Cl)ccc2OC1O)OCc1ccccc1 (stereo partly specified) | Cruzipain (Trypanosoma cruzi) (UniProt P25779) | 91

Request: Value wanted: Activity (Cruzipain (Trypanosoma cruzi) (UniProt P25779)) of entry COc1ccc2c(c1)C[C@H](NC(=O)[C@H](Cc1ccccc1)NC(=O)OCc1ccccc1)C(O)O2 (stereo partly specified)
Result: 91

Request: Value wanted: Activity (Cruzipain (Trypanosoma cruzi) (UniProt P25779)) of entry Cc1ccc2c(c1)C[C@H](NC(=O)[C@H](Cc1ccccc1)NC(=O)OCc1ccccc1)C(O)O2 (stereo partly specified)
Result: 91

Request: Value wanted: Activity (Cruzipain (Trypanosoma cruzi) (UniProt P25779)) of entry O=C(N[C@@H](Cc1ccccc1)C(=O)N[C@H]1Cc2ccccc2OC1O)OCc1ccccc1 (stereo partly specified)
Result: 91
